Assay: protein stability index of a GFP-peptide fusion (yeast GPS) (PSI 1-4); higher = more stable; sorted into four equal gates, so the index is relative within each strain
Conditions: ubr1∆
reported.endpoint: protein stability index

* KRAEKAARKAEKAKSAG [RPL24B] | 2.92
* LISGKAGVLNGTLEYGT [RET1] | 2.99
* TIYNNIREGQNQKIPDN [SIR3] | 3.02
* RSRMLPTITLDDVYRPA [SNF5] | 3.06

====

Test: protein stability index of a GFP-peptide fusion (yeast GPS) (PSI 1-4); higher = more stable; sorted into four equal gates, so the index is relative within each strain
Settings: pdr5∆
reported.endpoint: protein stability index

* GKIVSQRGKWNLKYLDN [RGR1] | 2.64
* ELVDMAGAGEANGTVVS [MTR3] | 3.11
* RCGRRSFHVQKKTCSSC [RPL37A] | 2.56
* LEEKILAKKTHKQELQD [SMC4] | 3.21
* LRDHALSLTAFTKNEEK [ITC1] | 1.76
* RAFTKKVSSASAAASES [RPL16B] | 2.19
* TKANDKNESATINEMMK [FAS2] | 3.17
* TVAVLPPNWKYESATAS [RPS13] | 2.06
* LVLADAFDIELSEFGIK [YCS4] | 3.06
* KILQKRSISKELIVSEE [SIR3] | 2.52
* KVGAEMMMQQQLKNVQL [MED2] | 2.6
* VSFNSKQNEQLHVEQLS [SMC3] | 2.72
* LIKQVPRLLGPQLSKAG [RPL1A] | 1.73
* LRVDEVQGKNLLTNFHG [RPS1A] | 3.42
* NVDYYNVAHRIKEDIKK [SNF2] | 3.17
* VTNFNSTNEDQNNSKHT [SRB5] | 2.44
* TVLETLLSDVNQNQRNV [SMC3] | 2.94
* ERPPYILNSYGVLKPDI [SIR2] | 3.12
* QELQIKRDVLDDLYRKL [CSE2] | 2.19
* NKVSYYGNPTSKESWRY [RTT102] | 3.19
* VDVLVISSHSHPVSLIS [RRP42] | 1.53
* NISGEFFRNKLKYHDFL [RPL16B] | 2.18
* QRVFKPVDITMMENYQN [PRP8] | 2.27
* TEQQIEIPEGVTVSIKS [RPL9B] | 2.73
* TGLLIARRTLQKLGLDE [RPL5] | 3.05
* WLAEKFQKETNMKVTIL [PRP28] | 3.17
* SSQFVRLASEPGIISIT [YMR129W/POM152] | 2.14
* IQIMANIDQEGSKQADR [PGD1] | 3.11
* TTPEKPEETPLEELAET [FAS2] | 3.09
* LYQSKGRYMEALALYVD [SRP68] | 1.9
* NKDSIEECGRTIHRSFT [CSN12] | 3.13
* QGIFKNSSNYFGELQFA [AAR2] | 2.6
* LQMYSKIRRHPNIMLIF [FAS1] | 2.01
* EKDFCTSCLQNNNQKID [SRB8] | 3.29
* NATANATANATANATAE [SNF11] | 3.33
* NFYLKRFISDLLWLVLI [SWI1] | 1.88
* VTLSQLVSVTSTLQHFQ [MED8] | 2.02
* RYSRQFINNVLSNPSNQ [GRR1] | 2.45
* VDIDDPDMMVDSFTMPN [SNF2] | 2.86
* IGEGAKLVRDAFALAKE [RPT5] | 3.38
* FIYKKVLKEKDVPAYNV [SRB8] | 3.05
* NEKFEIELLSLDDDSIV [SRB4] | 3.07
* SCGYPSAKTRSHNWAAK [RPL37B] | 3.15
* RLKDVEWVKLHRLLQRA [RMP1] | 3.13
* DTIMENPEPNKKNIQKA [IRR1] | 2.84
* HGMSVDPRHIQLLGDVM [RPO31] | 2.82

====

Assay: protein stability index of a GFP-peptide fusion (yeast GPS) (PSI 1-4); higher = more stable; sorted into four equal gates, so the index is relative within each strain
Details: pdr5∆
reported.endpoint: protein stability index

• IHNTKLPAYSGEIGDFF [POP1] = 3.1
• DRQIINEKMQLLKDIFA [SIR4] = 2.64
• TNGKPDMAILERYYELA [ARP7] = 3.1
• EAFIASGITDPYEMYKY [FAS2] = 2.06

====

Assay: protein stability index of a GFP-peptide fusion (yeast GPS) (PSI 1-4); higher = more stable; sorted into four equal gates, so the index is relative within each strain
Settings: ubr1∆
reported.endpoint: protein stability index

- HLSHPGTNKDMILKLVC [ECM29]: 1.91
- DVLKENNDADKGRSYAY [RIP1]: 3.03
- DDNNNNNNNNNNNNSTR [GRR1]: 3.03
- AKLSDTLIIDQVRKDLG [NUT1]: 2.85
- TENATENDQQDNEEWMN [LIN1]: 2.77
- NDPAREKFSSFIESIVV [SNF12]: 2.77
- DSEERDPKLEKCLNYRN [ITC1]: 2.49
- NDPNAAVNMTQNIMTLP [MED6]: 3.11
- IKSIIEQRKQKLSKILP [SMC3]: 2.82

====

Assay: protein stability index of a GFP-peptide fusion (yeast GPS) (PSI 1-4); higher = more stable; sorted into four equal gates, so the index is relative within each strain
Conditions: san1∆
reported.endpoint: protein stability index

• EYEKRNHGGSLGKYDLT [SRP68] = 2.15
• KIRELEAELSSTKVENS [YIL149C/MLP2] = 3.23
• SHPEKRMIPPRMVRSIM [SSN3] = 2.33
• GVTIEFSTNVKDEIVLS [RPL9A] = 3.3
• TMRRQKLTILQEGIEAI [RET1] = 2.8

====

Property: protein stability index; scope: individual sequences
Experiment: protein stability index of a GFP-peptide fusion (yeast GPS) (PSI 1-4); higher = more stable; sorted into four equal gates, so the index is relative within each strain
Conditions: pdr5∆
reported.endpoint: protein stability index

* PNHIPSVNPSNKPIKRM [SWP82] | 2.96
* KMATDNKINSRNSWNFA [BRN1] | 2.94
* TFSYVDSSLQPEYFESP [YMR129W/POM152] | 3.07
* TLGVVGKSEKLSLLLVE [SKI6] | 3.04
* WIKFDQELYNELCKKNE [RPN7] | 3.05
* TRNEQTTIQTEKVRPTP [MCD1] | 2.99
* ISIPKTCDEIQNFENDF [REC8] | 2.92
* YPESISNELIEHFSHFG [YDL088C/ASM4] | 3.02
* VLTNIEVYRTSLNTKKN [SMC3] | 3.08

====

Assay: protein stability index of a GFP-peptide fusion (yeast GPS) (PSI 1-4); higher = more stable; sorted into four equal gates, so the index is relative within each strain
Conditions: pdr5∆
Please use 1 (yes) whenever protein stability index is not below 3, and 0 (no) whenever it is.

* IPKQLLDDEKIFSQTTN [YJL039C/NUP192] | 0 (no)
* VTNALDNIDEKVVKAIR [NUT1] | 0 (no)
* VLSQFERSYPSEFANQN [ROX3] | 1 (yes)
* VEQDEGQCRTELEGSFN [YCS4] | 1 (yes)
* LDDTTIPVGLMAQENSM [MCD1] | 0 (no)
* HGLKQLRDSLADKIVDE [NUT2] | 0 (no)
* KRLLGTAFKSSPFGGSS [RPS23A] | 0 (no)
* ENELFNDRKQTTVSNDL [SSN2] | 1 (yes)
* ETKDIRKQIQLLKKIIF [SRB4] | 0 (no)
* NKNQLLKRNRIRNARSI [POP1] | 1 (yes)
* YACISSRPGQSGRCDGY [RPS8A] | 1 (yes)

====

Assay: protein stability index of a GFP-peptide fusion (yeast GPS) (PSI 1-4); higher = more stable; sorted into four equal gates, so the index is relative within each strain
Details: ubr1∆
Please use true (1) whenever protein stability index is not below 2, and false (0) whenever it is.

• EAFIASGITDPYEMYKY [FAS2] = true (1)
• NQTIKEAKDAIIELENI [YIL149C/MLP2] = true (1)
• GREGIWSKTIKARTNLH [RPC34] = false (0)
• FYQQVHKKDRLQYLPLY [SIR4] = false (0)
• IVVVIEIITSLSMRFQR [SRB8] = true (1)
• IAGHDEFNGFSLYQVDP [PRE8] = true (1)
• IPVKLLNEAQGHIVSLE [SMD3] = true (1)

====

Property: protein stability index; scope: individual sequences
Test: protein stability index of a GFP-peptide fusion (yeast GPS) (PSI 1-4); higher = more stable; sorted into four equal gates, so the index is relative within each strain
Settings: pdr5∆
reported.endpoint: protein stability index

* LGRDYPIEVDEELLQLF [IRR1] | 1.99
* ETSGVTTALLKDEEIEK [MED8] | 3.05
* MGRVRTKTVKRASKALI [RPS17A] | 1.87
* KFHSELQYLDKHIKNLE [RPN12] | 2.7
* KQREIVKAFLSIFEDAI [NUT1] | 1.65
* AHAIDQMTWRQWLNNAL [POP8] | 2.6
